system: HCC 2998; assay: NCI tumour cell line growth inhibition, 48 h
Calls of active or inactive are those of the source. No stated cut-off is given here; in the data, active = GI50 up to about 1.1 µM and inactive = higher.
readout: GI50

[[record]]
molecule = "O=c1[nH]cnc(NC2C=C(CO)C(O)C2O)c1[N+](=O)[O-] (stereo not given)"
result = "> 100 µM (inactive)"

[[record]]
molecule = "O=[N+]([O-])C(=C(N1CCCCC1)N1CCCCC1)/C(Cl)=C(\\Cl)[N+](=O)[O-]"
result = "22.1 µM (inactive)"

[[record]]
molecule = "c1ccc(CCN2CCc3[nH]c4ccccc4c3C2)cc1"
result = "16.3 µM (inactive)"

[[record]]
molecule = "Cn1c(=O)c2c(nc(NCCNc3nc4c(c(=O)n(C)c(=O)n4C)n3C)n2C)n(C)c1=O"
result = "> 100 µM (inactive)"

[[record]]
molecule = "CC(=O)N1c2ccccc2C2=NN(C)C(=N)SC21 (stereo not given)"
result = "> 100 µM (inactive)"

